Assay: drug combination toxicity in non-malignant astrocytes – cell-based, BGB or cisplatin IC20 combos, cytotoxicity control for chromothriptic childhood tumor combination screen (AID 1671460);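 note: cells exposed to compounds for 96 hours before viability readout; 0% = vehicle and 100% = killing control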
Conditions: Human astrocytes, viability inhibition, drug combinations; at 0.5 µM; active compounds read high
This listing pairs molecules with measured inhibition.

molecule: O=c1[nH]cnc2ccccc12
inhibition, %: 12.5
--
molecule: O=C(O)CO.[NH2-].[NH2-].[Pt+2]
inhibition, %: 13.7
--
molecule: NC(=O)c1nc(F)c[nH]c1=O
inhibition, %: -3.48
--
molecule: Cc1ccc2nc(NCCN)c3ncc(C)n3c2c1
inhibition, %: -0.35
--
molecule: CCCCc1nc2cc(/C=C/C(=O)NO)ccc2n1CCN(CC)CC
inhibition, %: 41.3
--
molecule: COc1cc(C=O)c([N+](=O)[O-])cc1OC
inhibition, %: -7.65
--
molecule: Nc1nc2n[nH]nc2c(=O)[nH]1
inhibition, %: 3.68
--
molecule: c1cc(Nc2cc(C3CC3)[nH]n2)nc(Nc2ccc3nc[nH]c3c2)n1
inhibition, %: 14.6
--
molecule: NCCOc1cc(C(=O)Nc2cc(OCCN)c3ccccc3n2)nc(C(=O)Nc2cc(OCCN)c3ccccc3n2)c1
inhibition, %: 5.8
--
molecule: COc1ccc(C(=O)CC2(O)C(=O)Nc3c(Cl)ccc(Cl)c32)cc1 (stereo not given)
inhibition, %: 9.33
